The following compounds are listed with their measured DC50 values.
Subject of test: WEE1 (Homo sapiens, UniProt P30291+Q96SW2)
Construct: C-terminal ePL-tagged (DiscoverX, Fremont, CA) full-length WEE1 expression construct; expressed in transfected cells; host or cells: LentiX-HEK293T (Invitrogen), lentiviral transduction; co-expressing GSPT1-GN (G576N, lacking the first 158 amino acids)
Assay procedure: WEE1-ePL degradation assay (LentiX-WEE1-ePL-GSPT1-ND cells, InCELL Hunter luminescence, 4 h)
Type: cell-based
Test conditions: 293T-LentiX WEE1-ePL cells, read-out: 293T-LentiX WEE1-ePL Degradation 4 hr (EC50)
Could you give me the number in nM? Just the number is fine.

Here is how some compounds turned out for DC50.
Query block: What DC50 value was documented for this compound, O=C1CCC(N2Cc3cc(O[C@H]4CCN(Cc5cccc(OC(F)F)c5)C4)ccc3C2=O)C(=O)N1 (stereo partly shown) ?
Result block: 196

Query block: Tell me the measured DC50 of CO[C@H]1CC[C@H](Oc2ccc3cc(CN4CC[C@H](Oc5ccc6c(c5)CN(C5CCC(=O)NC5=O)C6=O)C4)ccc3n2)CC1 (stereo partly shown) , please.
Result block: 11.5

Query block: Look up DC50: O=C1CCC(N2Cc3cc(O[C@H]4CCN(Cc5cc6ccc([C@H]7CCOC7)cc6cn5)C4)ccc3C2=O)C(=O)N1 (stereo partly shown)
Result block: 1.41

Query block: Tell me the measured DC50 of COC[C@@H]1CCCC[C@H]1c1ccc2cc(CN3CC[C@H](Oc4ccc5c(c4)CN(C4CCC(=O)NC4=O)C5=O)C3)ccc2n1 (stereo partly shown) , please.
Result block: 3.65

Further cases:
Query block: Any idea what its DC50 is? The compound is O=C1CCC(N2Cc3cc(O[C@H]4CCN(Cc5cc6ccccc6[nH]c5=O)C4)ccc3C2=O)C(=O)N1 (stereo partly shown)
Result block: 112

Query block: What value of measured DC50 is listed for O=C1CCC(N2Cc3cc(O[C@H]4CCN(Cc5cnc6c(c5)CCOC6)C4)ccc3C2=O)C(=O)N1 (stereo partly shown) ?
Result block: 27.3

Query block: I have this compound here, `CC1(C)C[C@H](c2ccc3cc(CN4CC[C@H](Oc5ccc6c(c5)CN([C@H]5CCC(=O)NC5=O)C6=O)C4)ncc3c2)CCO1` , and I need its recorded DC50.
Result block: 1.09

###

Measured 293T-LentiX WEE1-ePL Degradation 4 hr (Ymin) of individual entries
Subject of test: WEE1 (Homo sapiens, UniProt P30291+Q96SW2)
Construct: C-terminal ePL-tagged (DiscoverX, Fremont, CA) full-length WEE1 expression construct; expressed in transfected cells; host or cells: LentiX-HEK293T (Invitrogen), lentiviral transduction; co-expressing GSPT1-GN (G576N, lacking the first 158 amino acids)
Assay procedure: WEE1-ePL degradation assay (LentiX-WEE1-ePL-GSPT1-ND cells, InCELL Hunter luminescence, 4 h)
Assay type: cell-based
Test conditions: 293T-LentiX WEE1-ePL cells, lower limit of the fit (Ymin=0 luciferase inhibitor, Ymax DMSO control)
Just the number, please.

Query block: Endpoint output: 293T-LentiX WEE1-ePL Degradation 4 hr (Ymin) of `CC1(C)C[C@@H](c2ccc3cc(CN4CC[C@H](Oc5ccc6c(c5)CN([C@H]5CCC(=O)NC5=O)C6=O)C4)ccc3n2)CCO1` . Value?
Result block: 24.69

Query block: Report 293T-LentiX WEE1-ePL Degradation 4 hr (Ymin) for `O=C1CC[C@H](N2Cc3cc(O[C@H]4CCN(Cc5cc(C6CC6)c6nc(C7CCOCC7)ccc6c5)C4)ccc3C2=O)C(=O)N1` please.
Result block: 54.54

Query block: # query: 293T-LentiX WEE1-ePL Degradation 4 hr (Ymin) of entry `C[C@@H]1c2cc(O[C@H]3CCN(Cc4ccc5nc(N6CCOCC6)ncc5c4)C3)ccc2C(=O)N1[C@H]1CCC(=O)NC1=O`
Result block: 40.43

Query block: Tell me the measured 293T-LentiX WEE1-ePL Degradation 4 hr (Ymin) of `C[C@H]1c2cc(O[C@H]3CCN(Cc4ccc5nc(C6CCOCC6)ccc5c4)C3)ccc2C(=O)N1[C@H]1CCC(=O)NC1=O` , please.
Result block: 49.25

Query block: Give the measured 293T-LentiX WEE1-ePL Degradation 4 hr (Ymin) of O=C1CCC(N2Cc3cc(O[C@@H]4CN(Cc5ccc6nc([C@@H]7CCOC7)ccc6c5)C[C@@H]4F)ccc3C2=O)C(=O)N1 (stereo partly drawn) .
Result block: 33.6

Query block: Recorded 293T-LentiX WEE1-ePL Degradation 4 hr (Ymin) of CO[C@H]1CCC[C@@H]1c1ccc2cc(CN3CC[C@H](Oc4ccc5c(c4)CN(C4CCC(=O)NC4=O)C5=O)C3)ccc2n1 (stereo partly drawn) , please.
Result block: 30.79

Query block: # lookup: 293T-LentiX WEE1-ePL Degradation 4 hr (Ymin) of `CC(=O)N1CCC(c2ncc3cc(CN4CC[C@H](Oc5ccc6c(c5)CN([C@H]5CCC(=O)NC5=O)C6=O)C4)ccc3n2)CC1`
Result block: 36.09

Query block: // lookup 293T-LentiX WEE1-ePL Degradation 4 hr (Ymin) for COC[C@H]1CC[C@@H](c2ccc3cc(CN4CC[C@H](Oc5ccc6c(c5)CN(C5CCC(=O)NC5=O)C6=O)C4)ccc3n2)C1 (stereo partly drawn)
Result block: 34.11

Query block: Param item = O=C1CCC(N2Cc3cc(O[C@@H]4CCN(Cc5cccc6ncccc56)C4)ccc3C2=O)C(=O)N1 (stereo partly drawn) ; retrieve measured 293T-LentiX WEE1-ePL Degradation 4 hr (Ymin).
Result block: 91.51

Query block: // query 293T-LentiX WEE1-ePL Degradation 4 hr (Ymin) value for entry O=C1CCC(N2Cc3cc(O[C@@H]4CCN(Cc5cnc6ccccc6c5)C4)ccc3C2=O)C(=O)N1 (stereo partly drawn)
Result block: 83.91

Next:
Query block: Tell me the measured 293T-LentiX WEE1-ePL Degradation 4 hr (Ymin) of `O=C1CC[C@@H](N2Cc3cc(O[C@H]4CCN(Cc5cc(F)c6nc(C7CCOCC7)ccc6c5)C4)ccc3C2=O)C(=O)N1` , please.
Result block: 32.17

Query block: Which 293T-LentiX WEE1-ePL Degradation 4 hr (Ymin) value is on record for CN1CC[C@@H](c2ncc3cc(CN4CC[C@H](Oc5ccc6c(c5)CN(C5CCC(=O)NC5=O)C6=O)C4)ccc3n2)C1 (stereo partly drawn) ?
Result block: 37.05

Query block: If you can, please state the reported 293T-LentiX WEE1-ePL Degradation 4 hr (Ymin) value of `CC1(C)C[C@H](c2ccc3cc(CN4CC[C@H](Oc5ccc6c(c5)CN([C@H]5CCC(=O)NC5=O)C6=O)C4)ccc3n2)CCO1` .
Result block: 26.67

Query block: Which 293T-LentiX WEE1-ePL Degradation 4 hr (Ymin) value belongs to `CC1(C)C[C@H](c2ccc3cc(CN4CC[C@H](Oc5ccc6c(c5)CN([C@H]5CCC(=O)NC5=O)C6=O)C4)ncc3c2)CCO1` ?
Result block: 24.44

Query block: What 293T-LentiX WEE1-ePL Degradation 4 hr (Ymin) value was documented for this compound, COC[C@H]1CC[C@H](c2ccc3cc(CN4CC[C@H](Oc5ccc6c(c5)CN(C5CCC(=O)NC5=O)C6=O)C4)ccc3n2)C1 (stereo partly drawn) ?
Result block: 33.9

###

Listing of entries alongside the reported 293T-LentiX WEE1-ePL Degradation 4 hr (Ymin).
Subject of test: WEE1 (Homo sapiens, UniProt P30291+Q96SW2)
Construct: C-terminal ePL-tagged (DiscoverX, Fremont, CA) full-length WEE1 expression construct; expressed in transfected cells; host or cells: LentiX-HEK293T (Invitrogen), lentiviral transduction; co-expressing GSPT1-GN (G576N, lacking the first 158 amino acids)
Assay procedure: WEE1-ePL degradation assay (LentiX-WEE1-ePL-GSPT1-ND cells, InCELL Hunter luminescence, 4 h)
Type: cell-based
Test conditions: 293T-LentiX WEE1-ePL cells, lower limit of the fit (0 = luciferase inhibitor, Ymax = DMSO control)
Reply with just the number.

Known 293T-LentiX WEE1-ePL Degradation 4 hr (Ymin) results, listed for orientation:
Query block: What reported 293T-LentiX WEE1-ePL Degradation 4 hr (Ymin) corresponds to O=C1CCC(N2Cc3cc(O[C@H]4CCN(Cc5cc6cc([C@H]7CCOC7)ccc6cn5)C4)ccc3C2=O)C(=O)N1 (some centres unmarked) on WEE1 (Homo sapiens, UniProt P30291+Q96SW2)?
Result block: 28

Query block: Lab note: need 293T-LentiX WEE1-ePL Degradation 4 hr (Ymin) for CNC(=O)c1ncc2cc(CN3CC[C@H](Oc4ccc5c(c4)CN(C4CCC(=O)NC4=O)C5=O)C3)ccc2n1 (some centres unmarked) on WEE1 (Homo sapiens, UniProt P30291+Q96SW2), anyone have it?
Result block: 38

Query block: For WEE1 (Homo sapiens, UniProt P30291+Q96SW2), provide 293T-LentiX WEE1-ePL Degradation 4 hr (Ymin) of C#Cc1ccc2cc(CN3CC[C@H](Oc4ccc5c(c4)CN(C4CCC(=O)NC4=O)C5=O)C3)ccc2n1 (some centres unmarked) please.
Result block: 32

Query block: Enter reported 293T-LentiX WEE1-ePL Degradation 4 hr (Ymin) observed with WEE1 (Homo sapiens, UniProt P30291+Q96SW2) for COCc1ccc2cc(CN3CC[C@H](Oc4ccc5c(c4)CN(C4CCC(=O)NC4=O)C5=O)C3)ncc2c1 (some centres unmarked)
Result block: 30

Query block: Please provide the recorded 293T-LentiX WEE1-ePL Degradation 4 hr (Ymin) for O=C1CCC(N2Cc3cc(O[C@H]4CCN(Cc5ccc6nc(N7C[C@H]8C[C@@H](C7)O8)ccc6c5)C4)ccc3C2=O)C(=O)N1 (some centres unmarked) , tested on WEE1 (Homo sapiens, UniProt P30291+Q96SW2).
Result block: 38

Query block: Find the measured 293T-LentiX WEE1-ePL Degradation 4 hr (Ymin): item O=C1CCC(N2Cc3cc(O[C@H]4CCN(Cc5ccc6nc(CO[C@@H]7CCOC7)ccc6c5)C4)ccc3C2=O)C(=O)N1 (some centres unmarked) , target or system WEE1 (Homo sapiens, UniProt P30291+Q96SW2).
Result block: 30

Continuing:
Query block: Item: N#Cc1nc2ccccc2cc1CN1CC[C@H](Oc2ccc3c(c2)CN(C2CCC(=O)NC2=O)C3=O)C1 (some centres unmarked) Test system: WEE1 (Homo sapiens, UniProt P30291+Q96SW2) Read-out: 293T-LentiX WEE1-ePL Degradation 4 hr (Ymin) Value: ?
Result block: 29

Query block: // map Cc1ccc2cc(CN3C[C@H](C)[C@H](Oc4ccc5c(c4)CN(C4CCC(=O)NC4=O)C5=O)C3)ccc2n1 (some centres unmarked) to recorded 293T-LentiX WEE1-ePL Degradation 4 hr (Ymin) (system: WEE1 (Homo sapiens, UniProt P30291+Q96SW2))
Result block: 88.5
